Measured values drawn from ChEMBL document CHEMBL1127133 for this set.

Assay: T1/2 (phosphate buffer pH 7.0 @ 28 degree C)
Format: ADME
Assign class by half-life: not lower than 7 h means class 1; lower than 7 h means class 0.

CC(C)(C)C1=C(C(=O)[O-])N2C(=O)[C@H]([C@H](O)CCc3ccc(O)cc3)[C@H]2O1.[Na+] :: class 1

Decide: is the reported value of half-life for `CC(C)(C)C1=C(C(=O)[O-])N2C(=O)[C@H]([C@@H](O)c3ccccc3)[C@H]2O1.[Na+]` equal to or greater than 7 h?
class 1

Decide: is the reported value of half-life for `CC(C)(C)C1=C(C(=O)[O-])N2C(=O)[C@H](CNS(=O)(=O)Cc3ccccc3)[C@H]2O1.[Na+]` equal to or greater than 7 h?
class 1

Decide: is the reported value of half-life for `CC(C)(C)C1=C(C(=O)[O-])N2C(=O)[C@H](CNC(=O)CCNC(=O)Cc3ccccc3)[C@H]2O1.[Na+]` equal to or greater than 7 h?
class 0

Decide: is the reported value of half-life for `CC(C)(C)C1=C(C(=O)[O-])N2C(=O)[C@H](CNC(=O)[C@H](N)c3ccccc3)[C@H]2O1.[Na+]` equal to or greater than 7 h?
class 0

Decide: is the reported value of half-life for `CC(C)(C)C1=C(C(=O)[O-])N2C(=O)[C@H](CO)[C@H]2O1.[Na+]` equal to or greater than 7 h?
class 0

Decide: is the reported value of half-life for `COC(=O)[C@H](O)[C@H]1C(=O)N2C(C(=O)[O-])=C(C(C)(C)C)O[C@H]12.[Na+]` equal to or greater than 7 h?
class 0

Decide: is the reported value of half-life for `CC(C)(C)C1=C(C(=O)[O-])N2C(=O)[C@H]([C@H](O)CCc3ccncc3)[C@H]2O1.[Na+]` equal to or greater than 7 h?
class 1

###

Provide the reported log10(half-life) of each item.
Experiment: T1/2 (phosphate buffer pH 7.0 @ 28 degree C)
Assay type: ADME
In plain terms, each number is the log10 of measured half-life in min.

Lab note: each molecule below needs its log10(half-life) filled in.
1. CC(C)(C)C1=C(C(=O)[O-])N2C(=O)[C@H]([C@@H](O)CCc3ccc(O)cc3)[C@H]2O1.[Na+]
2. CC(C)(C)C1=C(C(=O)[O-])N2C(=O)[C@H]([C@H](O)CCc3ccncc3)[C@@H]2O1.[Na+]
3. C[C@@H](F)[C@H]1C(=O)N2C(C(=O)[O-])=C(C(C)(C)C)O[C@H]12.[Na+]
4. Cn1cc([C@H](O)[C@H]2C(=O)N3C(C(=O)[O-])=C(C(C)(C)C)O[C@H]23)nn1.[Na+]
5. CC(C)(C)C1=C(C(=O)[O-])N2C(=O)[C@H](CNC(=O)Cc3ccccc3)[C@H]2O1.[Na+]
6. CC(C)(C)C1=C(C(=O)[O-])N2C(=O)[C@H](CN)[C@H]2O1.[Na+]
7. CC(C)(C)C1=C(C(=O)[O-])N2C(=O)[C@H](CNC(=O)COC(=O)Cc3ccccc3)[C@H]2O1.[Na+]
8. C[C@@H](O)[C@H]1C(=O)N2C(C(=O)[O-])=C(C(C)(C)C)O[C@H]12.[Na+]

1: 3.10; 2: 2.63; 3: 2.32; 4: 2.62; 5: 2.52; 6: 1.86; 7: 2.75; 8: 2.69

Lab note: each molecule below needs its log10(half-life) filled in.
1. CC(C)(C)C1=C(C(=O)[O-])N2C(=O)[C@H]([C@H](O)c3ccncc3)[C@H]2O1.[Na+]
2. CC(C)(C)C1=C(C(=O)[O-])N2C(=O)[C@H]([C@@H](O)c3ccc(O)cc3)[C@H]2O1.[Na+]
3. C[C@@H](O)[C@H]1C(=O)N2C(C(=O)[O-])=C(C(C)(C)C)O[C@@H]12.[Na+]
4. CC(C)(C)C1=C(C(=O)[O-])N2C(=O)[C@H]([C@H](O)c3ccccc3)[C@@H]2O1.[Na+]
5. CC(C)(C)OC(=O)[C@H](O)[C@H]1C(=O)N2C(C(=O)[O-])=C(C(C)(C)C)O[C@H]12.[Na+]
6. O=C([O-])[C@H]1/C(=C/CO)O[C@@H]2CC(=O)N21.[K+] [CLAVULANATE POTASSIUM]

2.58
2.79
2.58
1.48
2.81
3.56

Just so you know, measured log10(half-life) for `CC(C)(C)C1=C(C(=O)[O-])N2C(=O)[C@H]([C@@H](O)CCc3ccncc3)[C@H]2O1.[Na+]` came out at 2.98

###

Assay: T1/2 (phosphate buffer pH 7.0 @ 28 degree C)
Format: ADME
Provide the reported half-life of each item.
Answers are plain numbers, in h.

CC(C)(C)C1=C(C(=O)[O-])N2C(=O)[C@H](CNC(=O)COc3ccccc3)[C@H]2O1.[Na+] :: 5.7

Lab note: each compound below needs its half-life filled in.
1. C[C@H](O)[C@H]1C(=O)N2C(C(=O)[O-])=C(C(C)(C)C)O[C@H]12.[Na+]
2. CC(C)(C)C1=C(C(=O)[O-])N2C(=O)[C@H](CO)[C@@H]2O1.[Na+]
3. CC(C)(C)C1=C(C(=O)[O-])N2C(=O)[C@H](CNS(C)(=O)=O)[C@H]2O1.[Na+]

[7.1, 2.4, 2.2]

###

Provide the reported log10 half-life of each item.
Test: T1/2 (phosphate buffer pH 7.0 @ 28 degree C)
Assay type: ADME
In plain terms, each number is the log10 of measured half-life in h.

CC(C)(C)C1=C(C(=O)[O-])N2C(=O)[C@H]([C@@H](O)c3ccncc3)[C@H]2O1.[Na+] :: 0.78

Lab note: each molecule below needs its log10 half-life filled in.
1. CC(C)(C)C1=C(C(=O)[O-])N2C(=O)[C@H]([C@@H](O)CCc3ccccc3)[C@H]2O1.[Na+]
2. CC(C)(C)C1=C(C(=O)[O-])N2C(=O)[C@H]([C@H](O)CCc3ccccc3)[C@H]2O1.[Na+]
3. CC(C)(C)C1=C(C(=O)[O-])N2C(=O)[C@H]([C@@H](O)CCc3ccc(O)cc3)[C@@H]2O1.[Na+]

[1.59, 1.32, 1.07]

###

Provide the reported half-life of each item.
Test: T1/2 (phosphate buffer pH 7.0 @ 28 degree C)
Assay type: ADME
Give bare numbers, in h.

# annotated cases, reported half-life shown
Cn1cc([C@@H](O)[C@H]2C(=O)N3C(C(=O)[O-])=C(C(C)(C)C)O[C@H]23)nn1.[Na+] :: 6.8
C[C@H](F)[C@H]1C(=O)N2C(C(=O)[O-])=C(C(C)(C)C)O[C@H]12.[Na+] :: 7.2

Here's the next entry for you.
Just so you know, measured half-life for `CC(C)(C)C1=C(C(=O)[O-])N2C(=O)[C@H]([C@H](O)c3ccccc3)[C@H]2O1.[Na+]` came out at 7

###

Provide the reported half-life of each item.
Experiment: T1/2 (phosphate buffer pH 7.0 @ 28 degree C)
Assay type: ADME
One number for each entry, in h.

# annotated cases, reported half-life shown
CC(C)(C)C1=C(C(=O)[O-])N2C(=O)[C@H](CNC(=O)CNC(=O)Cc3ccccc3)[C@H]2O1.[Na+] :: 6.6
COC(=O)[C@@H](O)[C@H]1C(=O)N2C(C(=O)[O-])=C(C(C)(C)C)O[C@H]12.[Na+] :: 6.2

Here's the next entry for you.
Just so you know, measured half-life for `CC(C)(C)C1=C(C(=O)[O-])N2C(=O)[C@H]([C@@H](O)c3ccccc3)[C@@H]2O1.[Na+]` came out at 2.2
